Molecular target: human BACE-1 (Homo sapiens)
Sequence (P56817 46-501): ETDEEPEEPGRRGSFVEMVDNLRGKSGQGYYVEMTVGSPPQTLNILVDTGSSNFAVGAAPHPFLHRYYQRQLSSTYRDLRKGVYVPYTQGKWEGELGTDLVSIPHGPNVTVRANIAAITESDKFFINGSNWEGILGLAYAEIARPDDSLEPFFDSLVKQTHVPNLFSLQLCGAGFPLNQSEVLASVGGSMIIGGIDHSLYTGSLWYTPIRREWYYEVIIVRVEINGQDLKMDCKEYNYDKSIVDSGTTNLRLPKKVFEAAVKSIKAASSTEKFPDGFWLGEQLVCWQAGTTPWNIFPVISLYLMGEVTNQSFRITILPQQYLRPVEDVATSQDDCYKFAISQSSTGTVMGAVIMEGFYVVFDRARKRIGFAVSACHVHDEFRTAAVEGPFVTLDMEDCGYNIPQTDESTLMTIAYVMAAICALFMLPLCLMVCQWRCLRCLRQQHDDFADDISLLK
Experiment: CEREP BACE Inhibition Assay
Type: biochemical
Settings: 1.0 μM; percent inhibition of the control activity; recombinant enzyme
measure: % Inhibition @ 1.0 μM (%)
Number only, in %; omit the unit.

// returns reported % Inhibition @ 1.0 μM for input CC(C)(C)CNC(=O)C[C@@H](C1CCCCC1)N1Cc2cc(Oc3ccccc3)ncc2N=C1N [Compound 200]
53

New cases:
// returns reported % Inhibition @ 1.0 μM for input CN(CC[C@@H](C1CCCCC1)N1Cc2cc(Oc3ccccc3)ncc2N=C1N)C1CCCCC1 [Compound 206]
90

Param item: CC(C)(C)OC[C@@H](NC(=O)CC[C@@H](C1CCCCC1)N1Cc2cc(Oc3ccccc3)ncc2N=C1N)C(=O)N[C@@H](CCC(=O)O)C(=O)O [Compound 225]
96

Param item: CC(C)(C)OCCN(Cc1ccccn1)C(=O)CC[C@@H](C1CCCCC1)N1Cc2cc(Oc3ccccc3)ncc2N=C1N [Compound 162]
99

Source of measurements: patent US7531545B2
